assayedTarget: GST-Bcl-xL (Homo sapiens)
Sequence (Q07817 whole entry): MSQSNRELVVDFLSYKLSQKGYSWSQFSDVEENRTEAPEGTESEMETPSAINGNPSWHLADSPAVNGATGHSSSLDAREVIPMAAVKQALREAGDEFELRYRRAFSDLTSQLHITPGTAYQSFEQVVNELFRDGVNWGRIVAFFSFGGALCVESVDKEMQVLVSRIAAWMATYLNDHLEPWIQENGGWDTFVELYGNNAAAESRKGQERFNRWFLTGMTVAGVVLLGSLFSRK
Mark each entry met if its Ki sits below 10 nM, and not met for all others.

q: Answer whether the molecule O=C(Nc1nc2ccccc2s1)c1cccc2c1CN(c1ccc(-c3cnn(Cc4ccccc4)c3-c3ccccc3)c(C(=O)O)n1)CC2 [Example 65] has Ki strictly less than 10 nM
a: not met

q: Also need O=C(Nc1nc2ccccc2s1)c1cccc2c1CN(c1ccc(-c3cnn(Cc4ccccc4Cl)c3)c(C(=O)O)n1)CC2 [Example 25] , thanks.
a: met

q: Also CC1(C)CCCC(Cn2cc(-c3ccc(N4CCc5cccc(C(=O)Nc6nc7ccccc7s6)c5C4)nc3C(=O)O)cn2)C1 (stereo not shown) [Example 92] ?
a: met

q: Again, but for O=C(Nc1nc2ccccc2s1)c1cccc2c1CN(c1ccc(-c3cnn(C4CCOc5ccccc54)c3)c(C(=O)O)n1)CC2 (stereo not shown) [Example 39]
a: not met

q: Can you check O=C(Nc1nc2cc(F)c(F)cc2s1)c1cccc2c1CN(c1ccc(-c3cnn(Cc4ccccc4)c3)c(C(=O)O)n1)CC2 [Example 7] next?
a: not met

q: Entry to check: O=C(Nc1nc2ccccc2s1)c1cccc2c1CN(c1ccc(-c3cnn(CC4(c5ccccc5)CCCCC4)c3)c(C(=O)O)n1)CC2 [Example 67]
a: met

q: # repeat for O=C(Nc1nc2ccccc2s1)c1cccc2c1CN(c1ccc(-c3cnn(Cc4ccc5ccccc5c4)c3)c(C(=O)O)n1)CC2 [Example 28]
a: not met

q: And what about the molecule O=C(Nc1nc2ccccc2s1)c1cccc2c1CN(c1ccc(-c3cnn(CC4(C(F)(F)F)CCCCC4)c3)c(C(=O)O)n1)CC2 [Example 74] ?
a: met

q: What would you report for COCCCC1(Cn2ncc(-c3ccc(N4CCc5cccc(C(=O)Nc6nc7ccccc7s6)c5C4)nc3C(=O)O)c2C)CCCCCC1 [Example 147] ?
a: met

q: Also Cc1c(-c2ccc(N3CCc4cccc(C(=O)Nc5nc6ccccc6s5)c4C3)nc2C(=O)O)cnn1CC1CCCCO1 (stereo not shown) [Example 154] , if possible.
a: met

q: What do you have for CCOC(=O)c1nn(Cc2ccccc2)c(C)c1-c1ccc(N2CCc3cccc(C(=O)Nc4nc5ccccc5s4)c3C2)nc1C(=O)O [Example 33] ?
a: not met

q: Now the same for O=C(Nc1nc2ccccc2s1)c1cccc2c1CN(c1ccc(-c3cnn(Cc4cccc(C(F)(F)F)c4)c3)c(C(=O)O)n1)CC2 [Example 61]
a: not met

q: What about this molecule? COC(=O)C(c1ccccc1)n1cc(-c2ccc(N3CCc4cccc(C(=O)Nc5nc6ccccc6s5)c4C3)nc2C(=O)O)cn1 (stereo not shown) [Example 95]
a: not met
